So I've got a bunch of compounds here, and I need their IC50 values.
- Test system: RS4;11 leukaemia tumour line
- experiment.description: In vitro cytotoxicity, Microculture Tetrazolium Assay (MTT)
- Assay type: cell-based
- condition.parameters: Homo sapiens; RS4;11 cells, 48 hours exposure
Counter-ions that a name gives are not always drawn.
Report only the number, with the unit nM understood.

Request: Could you tell me which IC50 is on file for CN(C)c1ccc(-n2nc(C(=O)N(c3ccccc3)c3ccccc3)c3ccccc32)c(C(=O)N2Cc3ccccc3C[C@H]2CN)c1 [Example 141] ?
Response: 2280

Request: Could you tell me which IC50 is on file for Cc1cc(C(=O)N(c2ccccc2)c2ccc(O)cc2)cn1-c1ccc(Br)cc1C(=O)N1Cc2ccccc2C[C@H]1CN1CCN(C)CC1 [Example 29] ?
Response: 1010

Request: Could you tell me which IC50 is on file for Cc1cc(C(=O)N(c2ccc(O)cc2)c2ccc3[nH]ccc3c2)cn1-c1cc2c(cc1C(=O)N1Cc3ccccc3C[C@H]1CN1CCN(C)CC1)OCO2 [Example 87] ?
Response: 138

Request: Could you tell me which IC50 is on file for CN(C)C[C@@H]1Cc2ccccc2CN1C(=O)c1ccc(Cl)cc1-n1cc(C(=O)N(c2ccccc2)c2ccc(O)cc2)c2ccccc21 [Example 179, hydrochloride] ?
Response: 886

Request: Could you tell me which IC50 is on file for Cc1cc(C(=O)N(c2ccccc2)c2ccc(O)cc2)cn1-c1cc(C(F)(F)F)ccc1C(=O)N1Cc2ccccc2C[C@H]1CN(C)C [Example 12] ?
Response: 1810

Request: Could you tell me which IC50 is on file for Cc1cc(C(=O)N(c2ccc(O)cc2)c2ccc3c(ccn3C)c2)cn1-c1cc(Cl)c(F)cc1C(=O)N1Cc2ccccc2C[C@H]1CN1CCN(C)CC1 [Example 77, hydrochloride] ?
Response: 207

Request: Could you tell me which IC50 is on file for NC[C@@H]1Cc2ccccc2CN1C(=O)c1ccccc1-n1cc(C(=O)N(c2ccccc2)c2ccccc2)c2ccccc21 [Example 123] ?
Response: 2370

Request: Could you tell me which IC50 is on file for Cc1cc(C(=O)N(c2ccc(O)cc2)c2ccc3[nH]ccc3c2)cn1-c1ccccc1C(=O)N1Cc2ccccc2C[C@H]1CN(C)C [Example 23] ?
Response: 445

Request: Could you tell me which IC50 is on file for Cc1cc(C(=O)N(c2ccc(O)cc2)c2ccc3c(ccn3C)c2)cn1-c1cc2c(cc1C(=O)N1Cc3ccccc3C[C@H]1CN(C)C)OCO2 [Example 94, hydrochloride] ?
Response: 118

Request: Could you tell me which IC50 is on file for CN1CCN(C[C@@H]2Cc3ccccc3CN2C(=O)c2cc3c(cc2-n2cc(C(=O)N(c4ccc(O)c(Cl)c4)c4ccc5c(ccn5C)c4)c4ccccc42)OCO3)CC1 [Example 81, hydrochloride] ?
Response: 652

Request: Could you tell me which IC50 is on file for Cc1cc(C(=O)N(c2ccccc2)c2ccc(O)cc2)cn1-c1cc(Cl)c(F)cc1C(=O)N1Cc2ccccc2C[C@H]1CN1CCN(C)CC1 [Example 28] ?
Response: 378

Request: Could you tell me which IC50 is on file for Cc1cc(C(=O)N(c2ccc(O)cc2)c2ccc3c(c2)CCN3)cn1-c1cc2c(cc1C(=O)N1Cc3ccccc3C[C@H]1CN1CCN(C)CC1)OCO2 [Example 103, hydrochloride] ?
Response: 523

Request: Could you tell me which IC50 is on file for Cc1cc(C(=O)N(c2ccc(O)cc2)c2ccc3c(c2)CCN3C)cn1-c1cc2c(cc1C(=O)N1Cc3ccccc3C[C@H]1C)OCO2 [Example 115, hydrochloride] ?
Response: 272

Request: Could you tell me which IC50 is on file for CCCCN(C(=O)c1cn(-c2cc3c(cc2C(=O)N2Cc4ccccc4C[C@H]2CN2CCN(C)CC2)OCO3)c2ccccc12)c1ccc(O)cc1 [Example 33] ?
Response: 199

Request: Could you tell me which IC50 is on file for Cc1cc(C(=O)N(c2ccccc2)c2ccccc2)cn1-c1cc(O)ccc1C(=O)N1Cc2ccccc2C[C@H]1CN [Example 6] ?
Response: 915

Request: Could you tell me which IC50 is on file for Cc1ccc(N(C(=O)c2cn(-c3cc4c(cc3C(=O)N3Cc5ccccc5C[C@H]3CN3CCN(C)CC3)OCO4)c3ccccc23)c2ccc3[nH]ncc3c2)cc1 [Example 68, hydrochloride] ?
Response: 856

Request: Could you tell me which IC50 is on file for O=C(c1cn(-c2ccccc2C(=O)N2Cc3ccccc3C[C@H]2CN2CCCCC2)c2ccccc12)N(c1ccccc1)c1ccc(O)cc1 [Example 173] ?
Response: 2040

Request: Could you tell me which IC50 is on file for Cc1cc(C(=O)N(c2ccc(O)cc2)c2ccc(F)cc2)cn1-c1cc(Cl)ccc1C(=O)N1Cc2ccccc2C[C@H]1CN1CCN(C)CC1 [Example 66] ?
Response: 148

Request: Could you tell me which IC50 is on file for Cc1cc(C(=O)N(c2ccccc2)c2ccc(O)cc2)cn1-c1cc(Cl)ccc1C(=O)N1Cc2ccccc2C[C@H]1CN(C)C [Example 13] ?
Response: 462

Request: Could you tell me which IC50 is on file for CCCCN(C(=O)c1cn(-c2cc(OC)c(O)cc2C(=O)N2Cc3ccccc3C[C@H]2CN2CCN(C)CC2)c2ccccc12)c1ccc(O)cc1 [Example 203, dihydrochloride] ?
Response: 454

Request: Could you tell me which IC50 is on file for CN1CCN(C[C@@H]2Cc3ccccc3CN2C(=O)c2cc3c(cc2-n2cc(C(=O)N(CCc4ccccc4)c4ccc(O)cc4)c4ccccc42)OCO3)CC1 [Example 40] ?
Response: 167

Request: Could you tell me which IC50 is on file for Cc1cc(C(=O)N(c2ccc(O)cc2)c2ccc(O)cc2)cn1-c1cc(Br)ccc1C(=O)N1Cc2ccccc2C[C@H]1CN1CCN(C)CC1 [Example 61] ?
Response: 204

Request: Could you tell me which IC50 is on file for COc1cc(-n2cc(C(=O)N(c3ccccc3)c3ccc(F)cc3)c3ccccc32)c(C(=O)N2Cc3ccccc3C[C@H]2CN2CCN(C)CC2)cc1O [Example 190, dihydrochloride] ?
Response: 645
